Here's a roundup of IC50 values tested on Macrophage metalloelastase (Homo sapiens), taken from various published works.
quantity_kind: IC50

1. Cc1cccc(COC(=O)c2cccc(S)n2)c1 : 70 µM
2. CCC(CC(=O)O)C(=O)c1ccc(C#Cc2ccccc2)cc1 (configuration not stated) : 0.48 µM
3. O=C(OCc1cc(F)c(F)cc1F)c1cccc(=O)[nH]1 : 56 µM
4. CC(C)CNC(=O)CC[C@H](NS(=O)(=O)c1ccc(-c2ccccc2)cc1)C(=O)O : 0.247 µM
5. c1ccc(CCn2nnc(Cc3cccnc3)n2)cc1 : > 150 µM
6. CNC(=O)[C@H](Cc1c[nH]c2ccccc12)NC(=O)[C@@H](CC(=O)NO)CC(C)C : 0.013 µM
7. Nc1nc2c(-c3cc(Br)c[nH]3)nccc2[nH]1 : > 100 µM

====

Here's a roundup of pIC50 values tested on Macrophage metalloelastase (Homo sapiens, UniProt P39900), taken from various published works.
Sequence (P39900 whole entry): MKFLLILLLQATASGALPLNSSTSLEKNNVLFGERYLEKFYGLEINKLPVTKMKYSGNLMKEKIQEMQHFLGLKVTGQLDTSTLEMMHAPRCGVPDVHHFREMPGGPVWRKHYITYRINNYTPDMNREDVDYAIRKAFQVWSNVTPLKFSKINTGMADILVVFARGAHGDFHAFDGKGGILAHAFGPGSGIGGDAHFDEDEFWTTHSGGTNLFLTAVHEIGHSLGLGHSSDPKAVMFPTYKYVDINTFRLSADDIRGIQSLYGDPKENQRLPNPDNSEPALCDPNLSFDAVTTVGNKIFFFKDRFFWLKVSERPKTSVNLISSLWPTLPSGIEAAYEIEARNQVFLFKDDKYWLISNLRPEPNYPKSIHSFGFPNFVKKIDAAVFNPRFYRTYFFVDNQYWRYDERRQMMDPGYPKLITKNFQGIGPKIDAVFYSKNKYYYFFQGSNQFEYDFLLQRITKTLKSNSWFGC
pIC50: −log10 of the molar value.
quantity_kind: pIC50

1) CC(C)[C@@H]1C(=O)N(O)C(=O)CN1S(=O)(=O)c1ccc(Oc2ccccc2)cc1 : 7.64
2) Cc1cc(COc2ccc(S(=O)(=O)N(C)C3(C(=O)NO)CN(C(=O)CC(C)C)C3)cc2)c2ccccc2n1 : 8.22
3) O=C(CC[C@H](NS(=O)(=O)c1ccc(-c2ccccc2)cc1)C(=O)O)NC1CCCCC1 : 7.14
4) O=C(NO)[C@@H]1C[S+]([O-])CN1S(=O)(=O)c1ccc(-c2ccccc2)cc1 (some centres undefined) : 5.60
5) O=C(OCCCCOc1ccccc1)c1cccc(=O)[nH]1 : 4.09
6) Cc1cc(COc2ccc(S(=O)(=O)N3CCN(C(=O)C(C)(C)C)C(C(=O)NO)C3)cc2)c2c(n1)CCCC2 (centres undefined) : 6.03

====

pIC50: −log10 of the molar value.
Here's a roundup of pIC50 values tested on Macrophage metalloelastase (Homo sapiens, UniProt P39900), taken from various published works.
quantity_kind: pIC50

1. Cc1cc(COc2ccc(S(=O)(=O)N(C)C3(C(=O)NO)CN(C(=O)C(C)C)C3)cc2)c2ccccc2n1 : 7.89
2. Nc1nc2c(-c3cc(Br)c(Cl)[nH]3)nccc2[nH]1 : 5.69
3. CNc1nc2c(-c3cc(Br)c(Br)[nH]3)nccc2[nH]1 : 4.98
4. O=C(O)C[C@@H](NC(=O)c1cc(-c2ccc(-c3ccncc3)cc2)c(F)s1)c1ccccc1 : 7.89
5. C[C@]1(CS(=O)(=O)N2CCC(Oc3ccc(OC(F)(F)F)cc3)CC2)NC(=O)NC1=O : 8.48
6. CC(C)(Cc1ccc(F)cc1)NC(=O)[C@H](CCC(=O)O)NC(=O)c1ccc(-c2ccccc2)cc1 : 5.71

====

Here's a roundup of IC50 values tested on Macrophage metalloelastase (Homo sapiens), taken from various published works.
quantity_kind: IC50

1. O=C(NO)[C@@H]1CS(=O)(=O)CN1S(=O)(=O)c1ccc(-c2ccccc2)cc1 : 0.5 µM
2. O=C(OCc1ccc(C(F)(F)F)cc1)c1cccc(=S)[nH]1 : 94 µM
3. O=C(OCc1cc(F)c(F)cc1F)c1cccc(=S)[nH]1 : 106 µM
4. O=C(Oc1ccc2ccccc2c1)c1cccc(S)n1 : 101 µM
5. O=C(OCc1cccc(Oc2ccccc2)c1)c1cccc(S)n1 : 71 µM
6. CCCCC[C@@H](C(=O)NCNC(=O)c1ccc(-c2ccccc2)o1)[C@@H](CC)N(O)C=O : 10 µM
7. O=C(O)CC(CC1CCCC1)C(=O)c1ccc(C#Cc2ccccc2)cc1 (stereo not drawn) : 0.32 µM
8. O=C(OCc1cccc(F)c1)c1cccc(S)n1 : 151 µM
9. Cn1cc2c(n1)-c1cc(Cl)ccc1SC2 : 1000 µM
10. O=C(OC1CCCCC1)c1cccc(S)n1 : 87 µM
11. O=C(NO)[C@@]1(O)COCC[C@H]1S(=O)(=O)c1ccc(OCc2ccc(Cl)cc2Cl)cc1 : 0.00095 µM
12. COc1ccc(COC(=O)c2cccc(S)n2)cc1 : 96 µM
13. Nc1nc2c(-c3[nH]c(Br)c(CCCc4ccccc4)c3Br)nccc2[nH]1 : > 100 µM
14. CNc1nc2c(-c3cc(Br)c(Br)[nH]3)nccc2n1C : > 100 µM
15. COc1ccc(C[C@H](OC(=O)/C=C/c2ccc(OCc3ccccc3)c(OCc3ccccc3)c2)C(=O)O)cc1OC : 2.3 µM
16. CCc1ccc(-c2cc(-c3ccc(S(=O)(=O)N[C@H](C(=O)O)C(C)C)cc3)no2)s1 : 0.000566 µM
17. O=C(Oc1cccs1)c1cccc(=O)[nH]1 : 65 µM
18. C1=C(n2cc(C3=NCCO3)nn2)CCCC1 : > 150 µM
19. CC(C)[C@H](NS(=O)(=O)c1ccc2c(c1)oc1ccc(-c3cc[nH]n3)cc12)C(=O)O : < 0.001 µM
20. Nc1nc2c(-c3cc(Br)c(Br)[nH]3)nccc2[nH]1 : 3.66 µM
21. C[C@]1(CNC(=O)COc2ccc(Cl)cc2)NC(=O)NC1=O : 0.07 µM
22. O=C(OCc1cccc(C(F)(F)F)c1)c1cccc(=O)[nH]1 : 82 µM
23. Nc1ccc(S(=O)(=O)N2CCc3cc(O)ccc3C2C(=O)NO)cc1 (stereo not drawn) : 0.191 µM
